Where do these numbers come from? They come from PubChem BioAssay AID1159580.

Assay: chemical genetic growth profiling, strain panel (AID 1159580);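 further: tested at 20 µM; growth read once vehicle control cultures reached saturation at 30 °C; 1 = growth at the plate median or of vehicle wells; lower values mean less growth of the strain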
Settings: S. cerevisiae deletion strains, growth OD, locus YGL086W, strain mad1, stronger effect = lower value
The campaign covered roughly 5,500 compounds. About 2,000 (36%) were called active. Another 18% or so got no clear call; they are omitted. This is one part of the list. *1 amine or outer side, *2 acyl side, *3 side chain or, on linkers, in order; H or OH if unused. Where a SMILES comes first, the peptide text is derived from it. Bridges are numbered along the chain shown (N, C = ends). [ ]: non-standard residue; d: D form. The star is where a group is joined. ξ: configuration not given here. ΔAla(E,3-NHCONH2) = NC(=O)N/C=C(/N)C(=O)O; X2 = NC1=NCCC(C(N[*:1])C(=O)[*:2])N1; ξβ3hOrn = NCCCC(N)CC(=O)*; Dap = NC[CH](N)C(=O)O
READOUT_TYPE: normalized growth
Please state the value as a number alone, without comment.

| COMPOUND | normalized growth |
| --- | --- |
| NCCCC(N)CC(=O)NCC1NC(=O)C(CO)NC(=O)C(N)CNC(=O)C(C2CCN=C(N)N2)NC(=O)/C(=C\NC(N)=O)NC1=O (stereo not drawn) (H-[Dap]S[Dap](ξβ3hOrn)[ΔAla(E,3-NHCONH2)][X2]; lactam 1-C; configuration not given here) | 0.997 |

Answer with the recorded normalized growth of "COC(=O)[C@]1(C)CC[C@]2(C)CC[C@]3(C)C4=CC=C5C(=CC(=O)C(O)=C5C)[C@]4(C)CC[C@@]3(C)[C@@H]2C1" only.
0.921

State its normalized growth for this compound: "O=C(O)c1cc([N+](=O)[O-])ccc1NCCCc1ccccc1"
0.985
